conditions: 313.15 K; 101.3 kPa; Liquid; Falling or rolling sphere viscometry
endpoint: viscosity (mPa·s)

Consider the reported viscosity for these molecules:
[[record]]
molecule = "CCCCCCC [heptane]"
test_result = 0.334

[[record]]
molecule = "C1CCCCC1 [cyclohexane]"
test_result = 0.697

[[record]]
molecule = "COC(=O)OC [dimethyl carbonate]"
test_result = 0.494


(a) CCCCCCCC [octane]
(b) CCOC(=O)OCC [diethyl carbonate]
(c) CCCCCC [hexane]
# input Arrange the 3 molecules by rising viscosity, starting with the smallest. Would you mind listing the labels in the order requested?
# output c, a, b

---

details: 298.15 K; 101.33 kPa; Liquid; Vibrating tube method
endpoint: mass density (kg/m3)

[[record]]
molecule = "CCCCCCCC [octane]"
test_result = 698.5

[[record]]
molecule = "CCOC(=O)OCC [diethyl carbonate]"
test_result = 969.1

[[record]]
molecule = "COC(=O)OC [dimethyl carbonate]"
test_result = 1063.5

[[record]]
molecule = "CCCCCC [hexane]"
test_result = 654.8

[[record]]
molecule = "CCCCCCC [heptane]"
test_result = 679.4

[[record]]
molecule = "C1CCCCC1 [cyclohexane]"
test_result = 773.8

